# TESTED ON: ZmHXK6Δ30 (Zea mays)
# Construct: N-terminal mitochondrial anchor deleted (87 nucleotides after the start codon, first 30 residues); E. coli BL21-CodonPlus(DE3)-RIL
# Sequence (A0A1D6NCX2 31-506, stated change not applied): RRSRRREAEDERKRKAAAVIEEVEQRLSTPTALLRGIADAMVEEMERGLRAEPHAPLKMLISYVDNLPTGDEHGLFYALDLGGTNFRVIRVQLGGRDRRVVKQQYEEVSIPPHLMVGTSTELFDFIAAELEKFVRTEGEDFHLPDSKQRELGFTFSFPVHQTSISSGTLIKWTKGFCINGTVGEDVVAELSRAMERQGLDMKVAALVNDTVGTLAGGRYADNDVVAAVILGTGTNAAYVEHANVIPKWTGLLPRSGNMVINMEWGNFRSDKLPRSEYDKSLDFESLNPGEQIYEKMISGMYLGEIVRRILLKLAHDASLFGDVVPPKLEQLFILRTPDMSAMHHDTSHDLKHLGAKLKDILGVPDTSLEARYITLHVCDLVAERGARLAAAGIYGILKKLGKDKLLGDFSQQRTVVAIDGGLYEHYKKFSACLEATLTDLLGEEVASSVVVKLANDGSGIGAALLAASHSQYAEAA
# RUN DESCRIPTION: coupled G6PDH/NADP+ assay, A340
# MEASUREMENT CONTEXT: 5 mM Glc, 2 mM ATP, 2 mM MgCl2, pH 8.0; product inhibition; PEP/pyruvate kinase listed in the reaction medium; read-out: ADP
READOUT LABEL: pIC50
pIC50 here is simply -log10 of the concentration when that concentration is written in mol/L.

## Task Let me know recorded pIC50 for "Nc1ncnc2c1ncn2[C@@H]1O[C@H](COP(=O)(O)OP(=O)(O)O)[C@@H](O)[C@H]1O" , thanks.
## Result 3.14

====

# TESTED ON: ZmHXK4Δ30 (Zea mays, UniProt K7VX77)
# Construct: N-terminal mitochondrial anchor deleted (87 nucleotides after the start codon, first 30 residues); E. coli BL21-CodonPlus(DE3)-RIL
# RUN DESCRIPTION: coupled G6PDH/NADP+ assay, A340
# MEASUREMENT CONTEXT: 5 mM Glc, 2 mM ATP, 2 mM MgCl2, pH 8.0; product inhibition; PEP/pyruvate kinase listed in the reaction medium; read-out: ADP
READOUT LABEL: IC50
Mention the unit after the number when you answer.

## Task Let me know recorded IC50 for "Nc1ncnc2c1ncn2[C@@H]1O[C@H](COP(=O)(O)OP(=O)(O)O)[C@@H](O)[C@H]1O" , thanks.
## Result 710 µM

====

# TESTED ON: ZmHXK5Δ30 (Zea mays, UniProt A0A1D6MAK9)
# Construct: N-terminal mitochondrial anchor deleted (87 nucleotides after the start codon, first 30 residues); E. coli BL21-CodonPlus(DE3)-RIL
# RUN DESCRIPTION: coupled G6PDH/NADP+ assay, A340
# MEASUREMENT CONTEXT: 5 mM Glc, 2 mM ATP, 2 mM MgCl2, pH 8.0; product inhibition; PEP/pyruvate kinase listed in the reaction medium; read-out: ADP
# Description: coupled G6PDH/NADP+ assay, A340 on ZmHXK5Δ30
READOUT LABEL: IC50 (µM)
The answer is to be given in µM; state only the numeric part.

## Task Let me know recorded IC50 for "Nc1ncnc2c1ncn2[C@@H]1O[C@H](COP(=O)(O)OP(=O)(O)O)[C@@H](O)[C@H]1O" , thanks.
## Result 690
